Test system: HCC1937
Experiment: drug sensitivity score (DSS), CellTox Green (DSS (AUC-based score)); higher = stronger drug effect (viability inhibition or cytotoxicity); extreme values may be limits of the assay
Details: incubation time: 72 h
Provide the recorded drug sensitivity score for the entries that follow.
One number for each entry.

>  <LINE NOTATION>
COc1cc2ncnc(Nc3ccc(F)c(Cl)c3)c2cc1OCCCN1CCOCC1

>  <drug sensitivity score>
0

$$$$
>  <LINE NOTATION>
CO[C@H]1C[C@@H]2CC[C@@H](C)[C@@](O)(O2)C(=O)C(=O)N2CCCC[C@H]2C(=O)O[C@H]([C@H](C)C[C@@H]2CC[C@@H](OP(C)(C)=O)[C@H](OC)C2)CC(=O)[C@H](C)/C=C(\C)[C@@H](O)[C@@H](OC)C(=O)[C@H](C)C[C@H](C)/C=C/C=C/C=C/1C

>  <drug sensitivity score>
0

$$$$

Now for another entry.
Query :: Entry S=P(N1CC1)(N1CC1)N1CC1 : reported drug sensitivity score = ?
Result :: 0

* * *

Tested on: DU-4475
Assay: drug sensitivity score (DSS), CellTiter-Blue viability (DSS (AUC-based score)); higher = stronger viability inhibition; extreme values may be limits of the assay
Conditions: incubation time: 72 h
PROPERTY MEASURED: drug sensitivity score
Numbers only.

Examples with their reported drug sensitivity score follow.
>  <COMPOUND>
COCC[n+]1c2c(n(Cc3cnccn3)c1C)C(=O)c1ccccc1C2=O

>  <TARGET>
DU-4475

>  <drug sensitivity score>
23.3

$$$$
>  <COMPOUND>
Cc1cc(Nc2cc(CN3CCOCC3)c3nc(C)c(Cc4ccc(Cl)cc4F)n3n2)n[nH]1

>  <TARGET>
DU-4475

>  <drug sensitivity score>
4.98

$$$$
>  <COMPOUND>
O=P1(N(CCCl)CCCl)NCCCO1 (stereo not given) [Cyclophosphamide]

>  <TARGET>
DU-4475

>  <drug sensitivity score>
0

$$$$
>  <COMPOUND>
c1ccc2c(CCNc3ccc(Nc4ccncc4)cc3)c[nH]c2c1

>  <TARGET>
DU-4475

>  <drug sensitivity score>
3.86

$$$$

In the following, a different compound is considered.
Query :: Provide the documented drug sensitivity score with DU-4475 as the system for CC(C)C[C@@H](C(=O)N[C@H](C(=O)OC1CCCC1)c1ccccc1)[C@H](O)C(=O)NO
Result :: 13.4

* * *

For each record, write down the corresponding normalised viability.
Test system: Hs578T
Experiment: normalised viability (% of control), CellTiter-Blue; higher = more viable cells (100 = DMSO, 0 = benzethonium chloride kill control)
Conditions: incubation time: 72 h
Numbers only, in %.

>  <COMPOUND>
CN(C)c1nc(N(C)C)nc(N(C)C)n1 [Altretamine] (1 nM)

>  <normalised viability [%]>
97.3

$$$$
>  <COMPOUND>
COCC1(CO)C(=O)C2CCN1CC2 (stereo not given) [Prima-1 Met] (1 nM)

>  <normalised viability [%]>
114

$$$$

Required: normalised viability, one value per compound below.
1. CN(C)CCOc1ccc(/C(=C(/CCCl)c2ccccc2)c2ccccc2)cc1 [Toremifene] (1 nM)
2. COc1cc(OC2CCN(C)CC2)ccc1Nc1ncc2c(n1)n(C1CCCC1)c(=O)n2C [AZ 3146] (1 nM)
3. Oc1ccc2c(c1)CC[C@H](c1ccccc1)[C@@H]2c1ccc(OCCN2CCCC2)cc1 [Lasofoxifene] (0.1 nM)

Result ::
1. 106
2. 89.2
3. 96.6

* * *

Tested on: MDA-MB-231
Experiment: normalised response (% of control), CellTiter-Glo; higher = more viable cells (100 = DMSO, 0 = benzethonium chloride kill control)
Details: incubation time: 72 h
For each record, write down the corresponding normalised response.
Give bare numbers, in %.

>  <MOLECULE>
Cc1cc(Nc2cc(CN3CCOCC3)c3nc(C)c(Cc4ccc(Cl)cc4F)n3n2)n[nH]1 [Gandotinib] (10 nM)

>  <PROPERTY MEASURED>
normalised response

>  <OUTPUT UNIT>
%

>  <OBSERVED>
102

$$$$
>  <MOLECULE>
COc1cc2/c(=N/c3ccc(Br)cc3F)nc[nH]c2cc1OCC1CCN(C)CC1 [Vandetanib] (100 nM)

>  <PROPERTY MEASURED>
normalised response

>  <OUTPUT UNIT>
%

>  <OBSERVED>
89.2

$$$$
>  <MOLECULE>
COc1cc(O)c2c(c1)/C=C/C[C@H](O)[C@H](O)C(=O)/C=C\C[C@H](C)OC2=O [(5Z)-7-Oxozeaenol] (10 nM)

>  <PROPERTY MEASURED>
normalised response

>  <OUTPUT UNIT>
%

>  <OBSERVED>
109

$$$$
>  <MOLECULE>
Nc1cc(C(F)(F)F)c(-c2cc(N3CCOCC3)nc(N3CCOCC3)n2)cn1 [Buparlisib] (10 nM)

>  <PROPERTY MEASURED>
normalised response

>  <OUTPUT UNIT>
%

>  <OBSERVED>
103

$$$$
>  <MOLECULE>
COc1cc2ncnc(Nc3ccc(F)c(Cl)c3)c2cc1OCCCN1CCOCC1 [Gefitinib] (10 nM)

>  <PROPERTY MEASURED>
normalised response

>  <OUTPUT UNIT>
%

>  <OBSERVED>
98

$$$$

Could you tell me normalised response for each of these molecules? They are listed below.
1. CCOC(=O)CCNc1cc(N2CCc3ccccc3CC2)nc(-c2ccccn2)n1 [GSK-J4] (100 nM)
2. Cc1[nH]c2ccccc2c1CCNCc1ccc(/C=C/C(=O)NO)cc1 [Panobinostat] (0.1 nM)
3. CCc1c2c(nc3ccc(OC(=O)N4CCC(N5CCCCC5)CC4)cc13)-c1cc3c(c(=O)n1C2)COC(=O)[C@]3(O)CC [Irinotecan] (1 nM)
4. COCC[n+]1c2c(n(Cc3cnccn3)c1C)C(=O)c1ccccc1C2=O [YM155] (1 nM)
5. O=C(Nc1ccncc1)C(=O)c1cn(Cc2ccc(Cl)cc2)c2ccccc12 [Indibulin] (1000 nM)
6. CO[C@H]1C[C@@H]2CC[C@@H](C)[C@@](O)(O2)C(=O)C(=O)N2CCCC[C@H]2C(=O)O[C@H]([C@H](C)C[C@@H]2CC[C@@H](OP(C)(C)=O)[C@H](OC)C2)CC(=O)[C@H](C)/C=C(\C)[C@@H](O)[C@@H](OC)C(=O)[C@H](C)C[C@H](C)/C=C/C=C/C=C/1C [Ridaforolimus] (10 nM)
7. O=C(/C=C/c1cccc(S(=O)(=O)Nc2ccccc2)c1)NO [Belinostat] (10 nM)
8. Cc1ccc(NC(=O)c2ccc(CN3CCN(C)CC3)cc2)cc1Nc1nc(-c2cccnc2)cs1 [Masitinib] (1000 nM)

Result ::
1: 92.8; 2: 105; 3: 90.3; 4: 99.6; 5: 78; 6: 87.1; 7: 98.5; 8: 105

Provide normalised response for all items below, preserving their order.
1. CCc1c2c(nc3ccc(OC(=O)N4CCC(N5CCCCC5)CC4)cc13)-c1cc3c(c(=O)n1C2)COC(=O)[C@]3(O)CC [Irinotecan] (10 nM)
2. COc1cc(OC2CCN(C)CC2)ccc1Nc1ncc2c(n1)n(C1CCCC1)c(=O)n2C [AZ 3146] (1 nM)

Result ::
1. 97.7
2. 102

For each listed entry, give its normalised response.
1. CN(C)c1nc(N(C)C)nc(N(C)C)n1 [Altretamine] (1 nM)
2. c1ccc2c(CCNc3ccc(Nc4ccncc4)cc3)c[nH]c2c1 [Serdemetan] (1 nM)
3. CCn1c(-c2nonc2N)nc2cnc(Oc3cccc(NC(=O)c4ccc(OCCN5CCOCC5)cc4)c3)cc21 (1000 nM)
4. Cc1ccc(NC(=O)c2ccc(CN3CCN(C)CC3)cc2)cc1Nc1nc(-c2cccnc2)cs1 [Masitinib] (10 nM)

Result ::
104
97.1
80.5
100

Lab note: each molecule below needs its normalised response filled in.
1. COc1cc(OC2CCN(C)CC2)ccc1Nc1ncc2c(n1)n(C1CCCC1)c(=O)n2C [AZ 3146] (10 nM)
2. COc1cc2c(NC3CCN(C(C)C)CC3)nc(N3CCC(F)(F)CC3)nc2cc1OCCCN1CCCC1 [UNC0642] (10 nM)
3. CCn1c(-c2nonc2N)nc2cnc(Oc3cccc(NC(=O)c4ccc(OCCN5CCOCC5)cc4)c3)cc21 (1 nM)
4. O=C(Nc1cccnc1)N1CCC(Cc2cccc(Oc3ccc(C(F)(F)F)cn3)c2)CC1 [PF-3845] (10 nM)
5. Cc1[nH]c2ccccc2c1CCNCc1ccc(/C=C/C(=O)NO)cc1 [Panobinostat] (100 nM)
6. CNC(=O)c1ccc(N2C(=S)N(c3ccc(C#N)c(C(F)(F)F)c3)C(=O)C2(C)C)cc1F [Enzalutamide] (1 nM)
7. CCn1c(-c2nonc2N)nc2cnc(Oc3cccc(NC(=O)c4ccc(OCCN5CCOCC5)cc4)c3)cc21 (10 nM)
8. COC(=O)c1ccc2c(c1)NC(=O)/C2=C(\Nc1ccc(N(C)C(=O)CN2CCN(C)CC2)cc1)c1ccccc1 [Nintedanib] (10 nM)

Result ::
1: 104; 2: 95.3; 3: 102; 4: 109; 5: 10.2; 6: 95; 7: 99.8; 8: 91.2

For every item below, please supply its normalised response.
1. NC(=O)c1ccc(I)c([N+](=O)[O-])c1 [Iniparib] (1000 nM)
2. CN(C)CCOc1ccc(/C(=C(/CCCl)c2ccccc2)c2ccccc2)cc1 [Toremifene] (10 nM)
3. Oc1ccc2c(c1)CC[C@H](c1ccccc1)[C@@H]2c1ccc(OCCN2CCCC2)cc1 [Lasofoxifene] (0.1 nM)
4. S=P(N1CC1)(N1CC1)N1CC1 [Thio-TEPA] (5 nM)
5. CNC(=O)c1ccc(N2C(=S)N(c3ccc(C#N)c(C(F)(F)F)c3)C(=O)C2(C)C)cc1F [Enzalutamide] (10 nM)

Result ::
[90, 96.8, 106, 102, 94.5]
